src = patent US6632824B2

Structures can show the parent of a compound that is named as a salt.
OUTCOME_MEASURE: melting point

COMPOUND: c1ccc2cc(C3CC4CCC(C3)N4CCOc3cccc4cccnc34)ccc2c1 (stereo not drawn)
ASSAY_RESULT: 110 to 113 °C

COMPOUND: c1ccc2cc(C3CC4CCC(C3)N4CCOc3cccc4[nH]ccc34)ccc2c1 (stereo not drawn) (as salt: oxalate)
ASSAY_RESULT: 119 to 120 °C (dec.)

COMPOUND: C1=C(c2ccc3ccccc3c2)CC2CCC1N2CCOc1cccc2c1OCCO2 (stereo not drawn) (as salt: oxalate)
ASSAY_RESULT: 151 to 153 °C (dec.)

###

pKi: −log10 of the molar value.
Data export: pKi values recorded with human 5-HT1A receptor (Homo sapiens).
Sequence (P08908 whole entry): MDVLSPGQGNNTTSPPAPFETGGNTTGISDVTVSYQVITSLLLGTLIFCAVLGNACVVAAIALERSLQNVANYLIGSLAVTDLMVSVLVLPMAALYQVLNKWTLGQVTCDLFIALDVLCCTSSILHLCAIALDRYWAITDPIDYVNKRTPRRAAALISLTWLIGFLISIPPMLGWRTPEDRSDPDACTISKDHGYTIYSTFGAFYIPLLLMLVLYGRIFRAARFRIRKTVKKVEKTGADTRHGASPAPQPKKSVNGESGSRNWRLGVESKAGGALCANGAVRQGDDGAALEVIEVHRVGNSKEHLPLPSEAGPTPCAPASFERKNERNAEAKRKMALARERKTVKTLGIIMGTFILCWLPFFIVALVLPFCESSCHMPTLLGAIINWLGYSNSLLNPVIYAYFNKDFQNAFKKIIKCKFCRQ

COMPOUND: C1=C(c2c[nH]c3ccccc23)CC2CCC1N2CCOc1cccc2ncccc12 (stereo not drawn) [Example 3]
MEASUREMENT_TARGET: human 5-HT1A receptor (Homo sapiens)
pKi: 6.76
--
COMPOUND: c1ccc2cc(C3CC4CCC(C3)N4CCSc3cccc4cccnc34)ccc2c1 (stereo not drawn) [Example 18]
MEASUREMENT_TARGET: human 5-HT1A receptor (Homo sapiens)
pKi: 6.59
--
COMPOUND: C1=C(c2ccc3ccccc3c2)CC2CCC1N2CCOc1cccc2c1OCCO2 (stereo not drawn) [Example 4]
MEASUREMENT_TARGET: human 5-HT1A receptor (Homo sapiens)
pKi: 6.48

###

Structures can show the parent of a compound that is named as a salt.
Item-by-item account of melting point

MOLECULE: C1=C(c2ccc3ccccc3c2)CC2CCC1N2CCNc1cccc2cccnc12 (centres unmarked)
melting point: 199 to 200 °C
--
MOLECULE: FC(F)(F)c1cccc(OCCN2C3C=C(c4ccc5ccccc5c4)CC2CC3)c1 (centres unmarked) (as salt: oxalate)
melting point: 128 to 130 °C (dec.)
--
MOLECULE: COc1cc(OCCN2C3C=C(c4ccc5ccccc5c4)CC2CC3)c2ncccc2c1 (centres unmarked) (as salt: oxalate)
melting point: 100 to 103 °C
--
MOLECULE: C1=C(c2c[nH]c3ccccc23)CC2CCC1N2CCOc1cccc2ncccc12 (centres unmarked) (as salt: oxalate)
melting point: 91 to 93 °C (dec.)
--
MOLECULE: COc1ccc2cc(C3=CC4CCC(C3)N4CCOc3cccc4[nH]ccc34)ccc2c1 (centres unmarked) (as salt: oxalate)
melting point: 130 to 132 °C (dec.)
--
MOLECULE: c1ccc2cc(C3CC4CCC(C3)N4CCSc3cccc4cccnc34)ccc2c1 (centres unmarked)
melting point: 200 to 203 °C
--
MOLECULE: Clc1cc(NCCN2C3C=C(c4ccc5ccccc5c4)CC2CC3)c2ncccc2c1 (centres unmarked)
melting point: 205 to 206 °C
--
MOLECULE: COc1cc(NCCN2C3C=C(c4ccc5ccccc5c4)CC2CC3)c2ncccc2c1 (centres unmarked) (as salt: oxalate)
melting point: 179 to 182 °C

###

Item-by-item account of IC50
MEASUREMENT_TARGET: Human 5-HT Transporter (Homo sapiens, UniProt P31645)
Construct: endogenous in cells
Sequence (P31645 whole entry): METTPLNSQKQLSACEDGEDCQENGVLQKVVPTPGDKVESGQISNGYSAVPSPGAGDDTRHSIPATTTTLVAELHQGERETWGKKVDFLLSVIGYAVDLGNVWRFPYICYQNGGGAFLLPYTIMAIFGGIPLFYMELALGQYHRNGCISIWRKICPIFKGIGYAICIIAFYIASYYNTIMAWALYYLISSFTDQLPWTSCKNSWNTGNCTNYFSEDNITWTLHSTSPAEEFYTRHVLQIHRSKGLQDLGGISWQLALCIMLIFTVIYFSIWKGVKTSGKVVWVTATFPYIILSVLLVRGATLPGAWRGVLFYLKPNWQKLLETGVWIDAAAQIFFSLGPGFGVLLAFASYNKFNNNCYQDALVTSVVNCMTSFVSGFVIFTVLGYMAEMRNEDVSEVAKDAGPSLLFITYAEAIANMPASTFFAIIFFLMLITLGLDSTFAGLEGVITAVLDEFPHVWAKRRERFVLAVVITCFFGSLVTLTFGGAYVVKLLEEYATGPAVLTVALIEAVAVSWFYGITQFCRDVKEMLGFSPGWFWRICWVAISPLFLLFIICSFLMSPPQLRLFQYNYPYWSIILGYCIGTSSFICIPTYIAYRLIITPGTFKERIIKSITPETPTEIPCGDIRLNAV
ASSAY_REMARKS: Inhibition of 3H-5-HT Uptake by Cells Possessing the Human 5-HT Transporter (HC 5HT Transporter)

COMPOUND: FC(F)(F)c1cccc(OCCN2C3C=C(c4ccc5ccccc5c4)CC2CC3)c1 (stereo not shown) [Example 11]
IC50: 191 nM

COMPOUND: COc1cc(NCCN2C3C=C(c4ccc5ccccc5c4)CC2CC3)c2ncccc2c1 (stereo not shown) [Example 5]
IC50: 42.8 nM

COMPOUND: C1=C(c2ccc3ccccc3c2)CC2CCC1N2CCOc1cccc2c1OCCO2 (stereo not shown) [Example 4]
IC50: 21.7 nM

COMPOUND: COc1ccc2cc(C3=CC4CCC(C3)N4CCOc3cccc4[nH]ccc34)ccc2c1 (stereo not shown) [Example 10]
IC50: 58.6 nM

COMPOUND: C1=C(c2c[nH]c3ccccc23)CC2CCC1N2CCOc1cccc2ncccc12 (stereo not shown) [Example 3]
IC50: 86.5 nM

COMPOUND: c1ccc2cc(C3CC4CCC(C3)N4CCSc3cccc4cccnc34)ccc2c1 (stereo not shown) [Example 18]
IC50: 3.5 nM

COMPOUND: c1ccc2cc(C3CC4CCC(C3)N4CCOc3cccc4[nH]ccc34)ccc2c1 (stereo not shown) [Example 12]
IC50: 35.7 nM
